Assay: A CellTox Green Cytotoxicity Assay to monitor cytotoxicity in HEK293 cells - 40 hour (AID 1224871); also: nearly all actives have a fitted effect of over 45% in size
Details: CellTox Green fluorescence; series mostly up to 76.8 µM
Results filed as inconclusive are left out. Activity calls are given as the source filed them. Calls follow the shape of the dose curve; as a rule, active = well fitted activation curve with a large enough effect in the repeat runs; inconclusive = weak or mixed curves; inactive = flat fitted curve, though single readings scatter.
I would appreciate it if you answered using one of these outcomes: TRUE for active, FALSE for inactive

CCCCCCCCCC[N+](C)(CCCCCCCCCC)CCC[Si](OC)(OC)OC: TRUE

Request: What call does the record list for Cc1cccc2c1ccc1ccccc12 ?
Response: FALSE

Request: State the result this test recorded for Cc1ccc2n[nH]nc2c1 .
Response: FALSE

Request: Query: recorded result category for O=C(Cl)c1ccc(Cl)cc1Cl in this test
Response: TRUE

Request: Which outcome was entered for the compound Cc1ccc2sc3cccc(C)c3c2c1 in this test?
Response: FALSE

Request: What outcome does the record of this test show for Clc1cccc(Cl)n1 ?
Response: FALSE
